# Tested on: CMS
# Design: species or system AML cell lines (8); Primary HTS, single concentration about 10 uM, Cell Titer Glo viability; log10 luminescence, per cent inhibition relative to cycloheximide control
# CONDITION_INFO: 72 h, relative to cycloheximide control, log10 luminescence; inhibitor
Below, each of the compounds is paired with its reported CMS %inh value.

- SMILES_NOTATION: "CS(=O)(=O)CCNCc1nc(-c2ccc3ncnc(Nc4ccc(F)c(Cl)c4)c3c2)cs1"
  UNITS_OF_MEASURE: "%"
  CMS %inh: 3.363
- SMILES_NOTATION: "NCC1(CC(=O)O)CCCCC1"
  UNITS_OF_MEASURE: "%"
  CMS %inh: -2.432
- SMILES_NOTATION: "CCOc1nccc2c1nc(-c1nonc1N)n2CC"
  UNITS_OF_MEASURE: "%"
  CMS %inh: -3.21
- SMILES_NOTATION: "COc1cc(Nc2nccc(-c3cnn4ncccc34)n2)cc(OC)c1"
  UNITS_OF_MEASURE: "%"
  CMS %inh: 100.2
- SMILES_NOTATION: "O=C1NC(=N[C@@H](CO)Cc2ccccc2)S/C1=C\\c1ccc2ncccc2c1"
  UNITS_OF_MEASURE: "%"
  CMS %inh: 8.828
- SMILES_NOTATION: "COc1cc2ncn(-c3cc(OCc4ccccc4C(F)(F)F)c(C(C)=O)s3)c2cc1OC"
  UNITS_OF_MEASURE: "%"
  CMS %inh: 0.7881
- SMILES_NOTATION: "CNC(=O)c1cc(-c2ccc(F)cc2)cc(-c2ccc(S(=O)(=O)N3CCCC3)cc2)c1N"
  UNITS_OF_MEASURE: "%"
  CMS %inh: 9.624
- SMILES_NOTATION: "CCCCC[C@H](CC(=O)NO)C(=O)N[C@H](C(=O)N1CCC[C@H]1CO)C(C)C"
  UNITS_OF_MEASURE: "%"
  CMS %inh: 4.96
- SMILES_NOTATION: "O=C(NCC1CC1)c1ccc(-c2cccc(C(=O)NC3CC3)c2)cc1"
  UNITS_OF_MEASURE: "%"
  CMS %inh: 0.2631

----------
# System: U937
# ASSAY_PROCEDURE: cells
# Set-up: species or system AML cell lines (8); Secondary HTS, 10-point dose-response in triplicate, Cell Titer Glo viability, four-parameter fit EC50
# CONDITION_INFO: Homo sapiens, U-937, 72 h, read-out: U937
Overview of recorded EC50 for various compounds
ENDPOINT: EC50

- SMILES_NOTATION: "Cc1ccc(Nc2nccc(N(C)c3ccc4c(C)n(C)nc4c3)n2)cc1S(N)(=O)=O"
  MEASURED: "> 10 µM"
- SMILES_NOTATION: "C[C@H]1C[C@H]2[C@@H]3CCC4=CC(=O)C=C[C@]4(C)[C@@]3(F)[C@@H](O)C[C@]2(C)[C@@]1(O)C(=O)CO"
  MEASURED: "> 10 µM"
- SMILES_NOTATION: "CC[C@H](Nc1ncnc2[nH]cnc12)c1nc2cccc(F)c2c(=O)n1-c1ccccc1"
  MEASURED: "> 10 µM"
- SMILES_NOTATION: "CN1CCN(c2cc(C(=O)Nc3ccc4c(c3)-c3c(c(C(N)=O)nn3-c3ccc(F)cc3)CC4)c(Cl)cn2)CC1"
  MEASURED: "9.2 µM"

----------
# System: CHRF288-11
# Design: species or system AML cell lines (8); Primary HTS, single concentration about 10 uM, Cell Titer Glo viability; log10 luminescence, per cent inhibition relative to cycloheximide control
# CONDITION_INFO: 72 h, relative to cycloheximide control, log10 luminescence; inhibitor
Structures can show the parent of a compound that is named as a salt.

- MOLECULE: "CC(C)Nc1cccnc1N1CCN(C(=O)c2cc3cc(NS(C)(=O)=O)ccc3[nH]2)CC1 [SJ000565159-1, DELAVIRDINE MESYLATE]"
  UNITS_OF_MEASURE: "%"
  CHRF288-11 %inh: -4.194
- MOLECULE: "COc1ccc(C2=C(c3cn(C)c4ccccc34)C(=O)NC2=O)cc1OC"
  UNITS_OF_MEASURE: "%"
  CHRF288-11 %inh: 6.661
- MOLECULE: "Cc1c(F)c(N2CCNC(C)C2)cc2c1c(=O)c(C(=O)O)cn2C1CC1 (stereo not drawn)"
  UNITS_OF_MEASURE: "%"
  CHRF288-11 %inh: 7.335

----------
# Test system: CMS
# ASSAY_PROCEDURE: cells
# Set-up: species or system AML cell lines (8); Secondary HTS, 10-point dose-response in triplicate, Cell Titer Glo viability, four-parameter fit EC50
# CONDITION_INFO: 72 h, read-out: CMS
pEC50: −log10 of the molar value.
ENDPOINT: pEC50

- MOLECULE: "CN(C)CC(=O)Nc1ccc2[nH]c(=O)c3ccccc3c2c1"
  ENDPOINT: "pEC50"
  MEASURED: "< 5.00"
- MOLECULE: "CCc1c(O)cc(O)c(C(=O)c2ccc(OCCN3CCOCC3)c(OC)c2)c1CC(=O)N(CCOC)CCOC"
  ENDPOINT: "pEC50"
  MEASURED: "< 5.00"
- MOLECULE: "CNC(=O)c1c(F)cccc1Nc1nc(Nc2cc3c(ccn3C(=O)CN(C)C)cc2OC)nc2[nH]ccc12 [SJ000821585, GSK1838705A]"
  ENDPOINT: "pEC50"
  MEASURED: "< 5.00"
- MOLECULE: "Cc1ccc(C(=O)c2cc(/C=C/C(=O)NO)n(C)c2)cc1"
  ENDPOINT: "pEC50"
  MEASURED: "< 5.00"
- MOLECULE: "Cn1c(=O)n(-c2ccc(C(C)(C)C#N)cc2)c2c3cc(-c4cnc5ccccc5c4)ccc3ncc21"
  ENDPOINT: "pEC50"
  MEASURED: "< 5.00"
- MOLECULE: "FC(F)c1nc2ccccc2n1-c1nc(N2CCOCC2)nc(N2CCOCC2)n1"
  ENDPOINT: "pEC50"
  MEASURED: "< 5.00"
- MOLECULE: "CN[C@@H]1C[C@H]2O[C@@](C)([C@@H]1OC)n1c3ccccc3c3c4c(c5c6ccccc6n2c5c31)C(=O)N[C@H]4O [SJ000784325, 7-HYDROXYSTAUROSPORINE]"
  ENDPOINT: "pEC50"
  MEASURED: 6.39
- MOLECULE: "NC(=O)[C@@H](CCC(F)(F)F)N(Cc1ccc(-c2ncon2)cc1F)S(=O)(=O)c1ccc(Cl)cc1"
  ENDPOINT: "pEC50"
  MEASURED: "< 5.00"
- MOLECULE: "O=C(Nc1cccc(NC(=O)c2cccc(O)c2O)c1)c1cccc(O)c1O"
  ENDPOINT: "pEC50"
  MEASURED: 5.54
- MOLECULE: "Cc1noc(-c2ccc(-c3ccc(CC(=O)O)cc3)cc2)c1NC(=O)O[C@H](C)c1ccccc1"
  ENDPOINT: "pEC50"
  MEASURED: "< 5.00"
- MOLECULE: "Cc1ccc(S(=O)(=O)/C=C/C#N)cc1"
  ENDPOINT: "pEC50"
  MEASURED: 5.44
- MOLECULE: "CSCC[C@@H](NC(=O)c1ccc(CNCc2cnc[nH]2)cc1-c1ccccc1C)C(=O)OCc1ccccc1"
  ENDPOINT: "pEC50"
  MEASURED: "< 5.00"
- MOLECULE: "Cc1cc(Nc2ccc(NC(=O)c3ccc(Nc4ccnc5ccccc45)cc3)cc2)nc(N)n1"
  ENDPOINT: "pEC50"
  MEASURED: 5.00
- MOLECULE: "C[C@@]1(C(=O)Nc2ccc(F)nc2)CCCN1c1nc(Nc2cc(C3CC3)n[nH]2)c2cccn2n1"
  ENDPOINT: "pEC50"
  MEASURED: "< 5.00"
- MOLECULE: "CC1(C)CCC(C)(C)c2cc(NC(=O)c3ccc(C(=O)O)cc3)ccc21"
  ENDPOINT: "pEC50"
  MEASURED: "< 5.00"

----------
Quick reference: U937 %inh of the listed items.
# Test system: U937
# Parameters: species or system AML cell lines (8); Primary HTS, single concentration about 10 uM, Cell Titer Glo viability; log10 luminescence, per cent inhibition relative to cycloheximide control
# CONDITION_INFO: 72 h, relative to cycloheximide control, log10 luminescence; inhibitor
ENDPOINT: U937 %inh (%)

- COMPOUND: "CCOCCn1c(N2CCCN(C)CC2)nc2ccccc21 [SJ000556751-1, EMEDASTINE DIFUMARATE]"
  MEASURED: 0.3803
- COMPOUND: "COC(=O)Nc1nc2cc(Oc3cccc(NC(=O)Nc4cc(C(F)(F)F)ccc4F)c3)ccc2[nH]1"
  MEASURED: -3.556
- COMPOUND: "CS(=O)(=O)CCNCc1ccc(-c2ccc3ncnc(Nc4ccc(OCc5cccc(C(F)(F)F)c5)cc4)c3c2)o1"
  MEASURED: -2.16
